Test: Pharmacokinetics of iDeg-6
Type: in vivo, male C57Bl/6 mice
Measurement Parameters: male, C57Bl/6, mouse, plasma; 1 mg/kg IV
Method: In vivo pharmacology characterization was carried out at Pharmacelsus GmbH, Saarbrücken, Germany, using male C57Bl/6 mice. Food and water was provided ad libitum before and during each study. All experimental procedures were approved by and conducted in accordance with the regulations of the local Animal Welfare Authorities. Plasma samples were analysed by liquid chromatography tandem-mass spectrometry using a generic method. Pharmacokinetic parameters were calculated by non-compartmental analysis. […]

>  <Molecule>
C#Cc1ccc(NC(=O)OC[C@]23CN(S(=O)(=O)c4ccc(C(C)(C)C)cc4C)C[C@H]2C[C@H]2C[C@@H]3C2(C)C)cc1 [98 (iDeg-6)]

>  <AUC(0-inf) [ng·h/mL]>
414

$$$$

# credit: paper PMC12811658
